Reported Metric: melting point

Example entries and their recorded answers appear below.
Compound: O=C1c2ccc(-c3cccc(C(F)(F)F)c3)cc2CC1Br (stereo unspecified)
Val: 96 °C
--
Compound: COC(=O)CN1CC(OC)=CC1=O
Val: 104 to 106 °C
--
Compound: Nc1ccc2[nH]c(C(=O)N3CC(CCl)c4c3cc(N)c3ccccc43)cc2c1 (stereo unspecified)
Val: > 300 °C
--
Compound: COCc1ccn2nc(S(=O)(=O)Cl)nc2n1
Val: 125 °C
--
Compound: Cn1c(C#N)c(-c2ccc(F)cc2)c2ncccc2c1=O
Val: 258 to 259 °C
--
Compound: CCOC(=O)c1cc2c(nc1C)C(=Cc1cccs1)CCC2
Val: 117 to 118 °C

Would you mind telling me what melting point value was observed for CCOC(=O)c1cc2c(C(F)(F)F)cc(OCC(=O)OC(C)(C)C)cc2n1C ? 98 to 100 °C

Okay, and CC(=O)Nc1cnn2cnc3ccccc3c12 ? 256 to 258 °C

Record: CC(C)n1cc(-c2c(-c3ccc(F)cc3)nn3ccncc23)ccc1=O 214 to 215 °C

Consider next the compound COC(=O)CCCON1C(=O)c2ccccc2C1=O in the same way. 79 to 81 °C

Also CC(CCC(=O)N(C)C#N)C(=O)N(C)C#N (stereo unspecified) , if possible. 59.2 to 60.9 °C

* * *

Recorded melting point for the following compounds

Worked set:
Compound: O=C1CCC(N2Cc3cc(CNC(=O)Nc4ccccc4)ccc3C2=O)C(=O)N1 (stereo not given)
melting point: 243 to 245 °C
--
Compound: CCCCc1ccc(OC)c(-c2csc(NC(=O)c3ccc(C(=O)N4CCC(N5CCC(OC(C)=O)C5)CC4)cc3)n2)c1 (stereo not given)
melting point: 99 °C
--
Compound: N#CC=C(C#N)Nc1ccccc1
melting point: 123 to 126 °C
--
Compound: O=C(CCCCCCCCc1ccccc1)NO
melting point: 75 to 77 °C
--
Compound: Cc1cc(-c2cc(C(F)(F)F)n3ncc(C(=O)O)c3n2)ccc1Cl
melting point: 243 °C

So what does the record say about melting point for C=C1[C@H](O)C[C@H](O[Si](C)(C)C(C)(C)C)[C@H]1CO[Si](C)(C)C(C)(C)C ? 64 to 66 °C

Try CN1C(=O)SC(C)(C)[C@@H]1[C@@H](CS(=O)(=O)c1ccc(Oc2ccc(OC(F)(F)F)cc2)cc1)N(O)C=O next. 84 to 86 °C

What do you have for CC1CCCC1(O)c1ccc(C#N)c2ccccc12 (stereo not given) ? 121 to 122 °C

Follow-up entry: Cc1ccc(CN2CCC(OC(=O)c3ccc(C)cc3)CC2)cc1 66 to 77 °C

What do we get for CC(C(O)c1ccc2c(c1)CCCS2)N1CCC(n2c(=O)[nH]c3ccccc32)CC1 (stereo not given) ? 232 to 235 °C

* * *

Reported Metric: melting point

Field: example entries. Status: answers known.
Smiles String: Nc1sc2c(c1C(=O)c1ccc3c(c1)Cc1ccccc1-3)CCCC2
melting point: 146 to 149 °C

Smiles String: CCc1c(-c2ccc(OCc3ccccc3)cc2)c2c(C(=O)OC)c(C(=O)OC)c3c(OCc4ccccc4)ccc1n32
melting point: 115 to 120 °C

Smiles String: O=C(CC1CCCCC1)Nc1c(Cl)ccc2nc(N3CCC(c4nnn[nH]4)CC3)ccc12
melting point: 295 to 300 °C

Moving on to the next molecule.
Given CCc1c(O)cc(O)c(C(=O)c2ccccc2)c1CC(=O)N1CCN(c2ccccc2C#N)C(=O)C1 , state its recorded melting point. 259 to 261 °C
